# maps each entry to its growth
Test system: UACC-257 melanoma
Test: NCI-60 one-dose screen, 48 h (100 = growth as untreated, 0 = no growth, -100 = all killed)
Settings: 10 µM unless noted
The panel holds about 83,000 compounds, 20% with a hit somewhere; the sample as a whole holds those more often. Activity calls are given as the source filed them. Rule for the calls: active = growth percent below 10; inactive = the rest.

Return reported growth; argument: Cc1nc2ccccc2c(/C=C/c2ccc(Cl)cc2)c1C(=O)/C=C/c1ccc(F)cc1
15% (inactive)

---

Tested on: M14 melanoma
Assay: NCI-60 one-dose screen, 48 h (100 = growth as untreated, 0 = no growth, -100 = all killed)
Details: 10 µM unless noted
The panel holds about 83,000 compounds, 20% with a hit somewhere; the sample as a whole holds those more often.
quantity: growth (%)
Just the number please, in %, no unit attached.

* COC(=O)[C@]12CC[C@@H](C)[C@H](C)[C@@H]1C1=CC[C@@H]3[C@@]4(C)C(C=O)=C[C@@](C)(COC(=O)c5ccco5)[C@@H]4C(=O)C[C@@]3(C)[C@]1(C)CC2 | 6.34
* CCN(CC)CCCNc1ccc(Nc2ccc(OC)cc2)cc1 | 94.7
* COc1ccc(CN2C(=O)C(Cl)=C(Nc3cccc(C(F)(F)F)c3)C2=O)cc1 | 63.5
* Cc1ccc(-n2nc3c(c(C#N)c2=O)CC(c2ccccc2Cl)C([N+](=O)[O-])=C3O)cc1 (stereo not drawn) | 99.6
* Cc1cccc(-c2nc(N(C)c3ccc4ncsc4c3)c3ccccc3n2)n1 | 54.1
* O=C1CCC2=C3C4CCCCC4C(=O)C4CCCC(OC2C1)C34 (stereo not drawn) | 0.565
* Cc1c(Cl)cc(-n2c(=O)c3ccccc3c3ccccc3c2=O)cc1Cl | 93
* O=C(c1ccc(Nc2nccc(NCCCCNc3ccnc4cc(Cl)ccc34)n2)cc1)N1CCCCC1 | -69
* CC(CN1CCCCC1)C(=O)c1ccccc1 (stereo not drawn) | 98.3
* COc1ccc2[nH]c(O)c(C(=Nc3ccc(N(C)C(=O)CN4CCN(C)CC4)cc3)c3ccccc3)c2c1 | 29.3

State the recorded growth for this entry: O=C(COc1ccc(/C=C2\Oc3ccccc3C2=O)cc1)Nc1nc2ccccc2s1
95.4

growth lookup needed for CCOc1c(C#N)nnc2c(C#N)c(NC(=O)c3ccccc3)nn12 , thanks.
99.1
